The values you see were collected from patent US10124004B2.

Parameter IC50: see the listing below.
TESTED ON: CDK6/cyclin D3 (Homo sapiens, UniProt Q00534)
Sequence (Q00534 whole entry): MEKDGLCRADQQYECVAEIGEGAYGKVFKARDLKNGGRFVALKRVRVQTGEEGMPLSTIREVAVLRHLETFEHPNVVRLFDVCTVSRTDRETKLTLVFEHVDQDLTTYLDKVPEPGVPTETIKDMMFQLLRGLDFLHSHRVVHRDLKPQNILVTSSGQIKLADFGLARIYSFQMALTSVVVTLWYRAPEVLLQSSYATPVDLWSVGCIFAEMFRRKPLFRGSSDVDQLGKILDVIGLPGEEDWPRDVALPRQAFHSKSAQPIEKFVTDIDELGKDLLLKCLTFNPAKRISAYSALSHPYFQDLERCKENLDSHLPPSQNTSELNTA
Sequence (P30281 whole entry partner): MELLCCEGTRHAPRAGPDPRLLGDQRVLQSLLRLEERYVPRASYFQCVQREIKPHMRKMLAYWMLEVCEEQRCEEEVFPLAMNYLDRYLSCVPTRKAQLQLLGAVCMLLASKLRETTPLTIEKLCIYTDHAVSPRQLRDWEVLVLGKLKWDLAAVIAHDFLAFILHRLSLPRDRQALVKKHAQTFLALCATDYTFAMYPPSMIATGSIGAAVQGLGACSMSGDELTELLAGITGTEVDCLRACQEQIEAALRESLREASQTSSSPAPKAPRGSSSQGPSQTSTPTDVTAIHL
ASSAY DETAILS: Human CDK6/cyclin D3 inhibitory activity (off-chip mobility shift assay)
TEST CONDITIONS: 50% inhibitory concentration against CDK6/cyclin D3; 300 μM ATP, room temperature, five hours; read-out: CDK6 Activity Symbol

{"COMPOUND": "COCC(C)(C)Nc1nc([C@@H](C)O)cc2cnc(Nc3ccc(CN4CCNCC4)cn3)nc12 [Compound 221]", "IC50": "10 to 100 nM"}
{"COMPOUND": "Cc1nc(Nc2ncc3cc([C@@H](C)O)nc(NC(C)C)c3n2)ccc1N1CCNCC1=O [Compound 749]", "IC50": "10 to 100 nM"}
{"COMPOUND": "CC(C)Nc1nc([C@@H](C)O)cc2cnc(Nc3ccc4c(n3)CCN(CCN(C)C)C4)nc12 [Compound 954]", "IC50": "< 10 nM"}
{"COMPOUND": "c1cc(N2CCNCC2)nnc1Nc1ncc2cc(C3CCOC3)nc(N[C@H]3CCCOC3)c2n1 (single isomer, unassigned) [Compound 938]", "IC50": "10 to 100 nM"}
{"COMPOUND": "CO[C@H](C)c1cc2cnc(Nc3ccc(N4CCNCC4)nn3)nc2c(NC(C)C)n1 [Compound 217]", "IC50": "10 to 100 nM"}
{"COMPOUND": "CC(C)Nc1nc([C@@H](C)O)cc2cnc(Nc3ccc4c(n3)CCN(CCO)C4)nc12 [Compound 929]", "IC50": "< 10 nM"}
{"COMPOUND": "CC(C)Nc1nc(C(F)F)cc2cnc(Nc3ccc(N4CCNCC4)cn3)nc12 [Compound 3]", "IC50": "< 10 nM"}
{"COMPOUND": "c1cc(Nc2ncc3cc(C4CCOC4)nc(N[C@H]4CCCOC4)c3n2)ncc1CN1CCNCC1 (single isomer, unassigned) [Compound 941]", "IC50": "< 10 nM"}
{"COMPOUND": "CCCNc1nc([C@@H](C)OC)cc2cnc(Nc3ccc(CN4CCNCC4)cn3)nc12 [Compound 818]", "IC50": "10 to 100 nM"}
{"COMPOUND": "C[C@@H](O)c1cc2cnc(Nc3ccc4c(n3)CCNC4)nc2c(N[C@H]2CCCOC2)n1 [Compound 778]", "IC50": "10 to 100 nM"}
{"COMPOUND": "CC(C)Nc1nc([C@@H](C)O)cc2cnc(Nc3ccc(N4CCNCC4)cn3)nc12 [Compound 16]", "IC50": "< 10 nM"}
{"COMPOUND": "CCCNc1nc([C@@H](C)OC)cc2cnc(Nc3ccc(N4CCNCC4)nn3)nc12 [Compound 819]", "IC50": "10 to 100 nM"}
{"COMPOUND": "CO[C@H](C)c1cc2cnc(Nc3ccc(N4CCNCC4)nn3)nc2c(N[C@H]2CCCOC2)n1 [Compound 304]", "IC50": "10 to 100 nM"}
{"COMPOUND": "CO[C@H](C)c1cc2cnc(Nc3ccc(CN4CCNCC4)cn3)nc2c(N[C@H]2CCCOC2)n1 [Compound 300]", "IC50": "10 to 100 nM"}
{"COMPOUND": "CC(C)N(C)c1nc([C@@H](C)O)cc2cnc(Nc3ccc(N4CCNCCC4=O)cn3)nc12 [Compound 904]", "IC50": "< 10 nM"}
{"COMPOUND": "CO[C@H](C)c1cc2cnc(Nc3ccc(CN4CCNCC4)cn3)nc2c(NC(C)C)n1 [Compound 220]", "IC50": "10 to 100 nM"}
